Assay text: log P value (octanol/water partition coefficient)
Outcome measure: logP

>>> observed("CSc1ccc(C(=O)C(C)(C)N2CCOCC2)cc1")
2.09

----------
Assay text: log P value (octanol/water partition coefficient)
Test settings: octanol/water
Outcome measure: logP

>>> observed("C=CC(=O)OCCCCCCCCCCOC(=O)C=C [1,10-decanediol diacrylate]")
4.1

These data points were gathered from patent US20160033699A1.
